Reference source: ChEMBL document CHEMBL3885861

Species: Rattus norvegicus
Test: Open TG-GATES - Regimen: Single
Assay type: toxicity, organism-based, Sprague-Dawley
Design: regimen Single, gender Male, age 6 weeks
Experimental Parameters: in vivo, po, 0 mg/kg, 9 h, tissue Blood, route gavage, dose level Control
Would you mind telling me the reported MCH of each entry?
Give bare numbers, in pg.

Example entries and their recorded answers appear below.
>  <Compound>
Cc1nnc2n1-c1ccc(Cl)cc1C(c1ccccc1Cl)=NC2 [TRIAZOLAM]

>  <MCH / pg>
20.9

$$$$
>  <Compound>
NC1=NC(=O)C(c2ccccc2)O1 (stereo not drawn) [PEMOLINE]

>  <MCH / pg>
21.5

$$$$

Attention now shifts to the item below.
Consider the compound CN/C(=N/CCSCc1nc[nH]c1C)NC#N [CIMETIDINE] . State its measured MCH. 21.5
